The reported numbers originate from patent US20210246166A1.

For each of the binders below, state its human MASP1 IC50.
Target: T1, recombinant human MASP1 active protease (amino acids 297-699, C-terminal His Tag) (human, UniProt P48740 297-699)
T1 sequence: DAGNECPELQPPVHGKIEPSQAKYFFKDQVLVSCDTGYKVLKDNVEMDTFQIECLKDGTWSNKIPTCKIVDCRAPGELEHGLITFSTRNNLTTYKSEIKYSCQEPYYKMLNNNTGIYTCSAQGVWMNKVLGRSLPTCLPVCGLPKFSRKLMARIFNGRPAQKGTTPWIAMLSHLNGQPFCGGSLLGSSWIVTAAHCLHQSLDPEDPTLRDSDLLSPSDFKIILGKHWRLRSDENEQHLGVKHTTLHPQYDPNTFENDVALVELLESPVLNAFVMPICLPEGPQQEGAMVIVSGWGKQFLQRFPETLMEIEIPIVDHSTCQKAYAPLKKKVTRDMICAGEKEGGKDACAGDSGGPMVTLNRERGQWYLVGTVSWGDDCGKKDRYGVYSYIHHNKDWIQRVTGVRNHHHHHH
Assay: cell-based or functional assay
Bridge positions count the residues as written; N and C are the ends. Square brackets hold non-standard residues; d marks the D form. Ends that are not written are not given here. Oic = O=C(O)[C@@H]1C[C@@H]2CCCC[C@@H]2N1; tBuAla = CC(C)(C)C[C@H](N)C(=O)O; Pen = CC(C)(S)[C@H](N)C(=O)O
The reply should consist of the numeric value with the unit placed after it.

Exercise: // human MASP1 IC50 lookup, key: AICSRS[tBuAla]P[Oic]ICI-NH2 (disulfide 3-11; N-terminus assumed; SMILES CC[C@H](C)[C@H](NC(=O)[C@@H]1CSSC[C@H](NC(=O)[C@@H](NC(=O)[C@H](C)N)[C@@H](C)CC)C(=O)N[C@@H](CO)C(=O)N[C@@H](CCCNC(=N)N)C(=O)N[C@@H](CO)C(=O)N[C@@H](CC(C)(C)C)C(=O)N2CCC[C@H]2C(=O)N2[C@@H](C[C@@H]3CCCC[C@@H]32)C(=O)N[C@@H]([C@@H](C)CC)C(=O)N1)C(N)=O) [AIC+SRS-((tBu)A)-P-(Oic)-IC+I-NH2]
Key: 3.3 nM

Exercise: human MASP1 IC50 lookup needed for AICSRS[tBuAla]P[Oic]I[Pen]IPD-OH (disulfide 3-11; N-terminus assumed; SMILES CC[C@H](C)[C@H](NC(=O)[C@H](C)N)C(=O)N[C@H]1CSSC(C)(C)[C@@H](C(=O)N[C@H](C(=O)N2CCC[C@H]2C(=O)N[C@@H](CC(=O)O)C(=O)O)[C@@H](C)CC)NC(=O)[C@H]([C@@H](C)CC)NC(=O)[C@@H]2C[C@@H]3CCCC[C@@H]3N2C(=O)[C@@H]2CCCN2C(=O)[C@H](CC(C)(C)C)NC(=O)[C@H](CO)NC(=O)[C@H](CCCNC(=N)N)NC(=O)[C@H](CO)NC1=O) [AIC+SRS-((tBu)A)-P-(Oic)-I-(Pen)+IPD-OH] , thanks.
Key: 1.3 nM
